B1: RIPK4 (parent)
chain: VSVNAQTLDGRTPLHLAAQRGHYR

# Variants of: B1
# protocol: protein stability index of a GFP-peptide fusion (GPS, HEK-293T) (PSI 1-6); higher = more stable;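 also: lentivirally expressed fusions sorted by FACS into six bins by GFP to DsRed ratio, PSI derived from sequencing read proportions per bin multiplied by bin number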
# protocol_conditions: c terminus: a fixed tail appended
Quick list: protein stability index per entry.

monomer_sequence	measured_attribute	reading
VSVNAQTLDGRNPLHLAAQRGHYR	protein stability index	2.96
VSGNAQTLDGRTPLHLAAQRGHYR	protein stability index	3.9

Query: protein stability index; subject: VSVNAQTLDGRTPLHLAGQRGHYR
3.5

Query: protein stability index; subject: VSVNAQTLDGRTPLRLAAQRGHYR
3.89
